experiment: qHTS of Nrf2 Activators; conditions: AREc32 ARE-luciferase reporter (MCF7-derived line), luminescence, 24 h; series mostly up to 46.1 µM; further: nearly all actives have a fitted effect of over 65% in size
The whole screen tested about 410,000 compounds, of which about 1,200 (0.29%) were called active. About 2% were inconclusive and are not listed. What follows is part of a selection rich in actives, with near analogues and random picks from the rest.
measurement_label: outcome

COc1cccc(C(=O)N(Cc2cccc(Cl)c2)Cc2ccco2)c1 :: inactive
CC(C)c1ccc(C2CC(=O)N3CN(C4CCCCC4)CSC3=C2C#N)cc1 (centres undefined) :: inactive
CSc1ccccc1NC(=O)CCS(=O)(=O)c1nc(-c2cccs2)cc(C(F)(F)F)n1 :: inactive
CCc1ccc(N2C(=O)CN(S(=O)(=O)CC)CC2(C)C(=O)NC2CCCCC2)cc1 (centres undefined) :: inactive
